method.notes: qHTS Assay for Lipid Storage Modulators in Drosophila S3 Cells; note: potency is the fitted concentration of half-maximal effect
experimental.conditions: BODIPY lipid droplet fluorescence, 18-24 h, cells fed with added oleic acid; series mostly up to 46.1 µM
About 2,100 (0.66%) of roughly 320,000 compounds were called active. Not shown: some 53% with an inconclusive outcome. This is one part of a sample in which actives are shown more often than they occur.
parameter: Potency

Solved entries:
Inquiry: Hello, please tell me recorded Potency for this one: O=C(O)COc1ccc2oc3c(c2c1)CCCC3
Reply text: inactive

Inquiry: Hello, please tell me recorded Potency for this one: O=C(CCc1nnc(COc2ccccc2)o1)NCc1ccccc1
Reply text: inactive

Inquiry: Hello, please tell me recorded Potency for this one: CCCCCCSc1ccc(-c2nc3ccc(C)cn3c2NC2CCCCC2)cc1
Reply text: 11.6 µM (active)

Inquiry: Hello, please tell me recorded Potency for this one: COc1ccccc1/C=C/c1onc(C)c1S(=O)(=O)N1CCC(C(=O)NC2CCCCCC2)CC1
Reply text: inactive

---
Inquiry: Hello, please tell me recorded Potency for this one: Cc1nc2n(n1)C(c1ccccc1)C1=C(CC(c3ccco3)CC1=O)N2 (centres undefined)
Reply text: inactive

Inquiry: Hello, please tell me recorded Potency for this one: CNC(=O)NC(=O)COc1ccc2oc3c(c2c1)CCCC3
Reply text: 0.58 µM (active)

Inquiry: Hello, please tell me recorded Potency for this one: NNC(=O)COc1ccc2oc3c(c2c1)CCCC3
Reply text: inactive

Inquiry: Hello, please tell me recorded Potency for this one: COc1ccc(/C=N/NC(=O)c2ccncc2)cc1CSc1nc2ccccc2s1
Reply text: inactive

Inquiry: Hello, please tell me recorded Potency for this one: CN1CCN(NC(=O)Nc2ccc(Br)cc2)CC1
Reply text: inactive

Inquiry: Hello, please tell me recorded Potency for this one: CC(=O)c1ccc(N2CCN(C(=O)Nc3ccc(F)cc3F)CC2)cc1
Reply text: inactive

Inquiry: Hello, please tell me recorded Potency for this one: C/C=N/NC(=O)c1cc(Br)ccc1O
Reply text: inactive

Inquiry: Hello, please tell me recorded Potency for this one: COc1ccc(C(=O)CSc2nnc(C3CC3)n2N)cc1
Reply text: inactive

* * *

method.notes: qHTS Assay for Lipid Storage Modulators in Drosophila S3 Cells
experimental.conditions: BODIPY lipid droplet fluorescence, 18-24 h, cells fed with added oleic acid; series mostly up to 46.1 µM
Excerpt: NIH Molecular Libraries Probe Production Centers Network [MLPCN] NIH Chemical Genomics Center [NCGC] […] Triacsin C (Sigma-Aldrich T-4540), an inhibitor of long-chain fatty acyl CoA synthetase that blocks synthesis of triglycerides, was used as a positive control for lipid under-storage. […] Fluorescence was detected by excitation of the fluorophores with a 488-nm laser on an Acumen Explorer (TTP Lab Tech). […] Cells were detected using channel 3 (575-640 nm) with 5-um width and 100-um depth filters. […]
About 2,100 (0.66%) of roughly 320,000 compounds were called active. Inconclusive results (about 53%) are left out. Calls come from the whole dose curve; as a rule, active = well fitted inhibition curve with a large enough effect in the signal ratio, with a control signal flat (not every such curve was filed as active); inconclusive = small, poorly fitted or top-dose-only effect, or effect the other way, or a change in a side signal; inactive = flat fitted curve, though single readings scatter; the % refers to the signal ratio. This excerpt belongs to a sample that is enriched for actives.
Respond using exactly one of the listed classes: active, inactive

Inquiry: Returns: the outcome recorded for Cc1ccccc1NS(=O)(=O)c1ccc(C(=O)N2CCN(S(=O)(=O)c3ccccc3)CC2)cc1 in this assay.
Reply text: active

Inquiry: Returns: the outcome recorded for CN(C)S(=O)(=O)c1cccc(-c2nnc(SCC(=O)NCCCCCC(=O)O)n2-c2ccc(F)cc2)c1 in this assay.
Reply text: inactive

* * *

method.notes: qHTS Assay for Lipid Storage Modulators in Drosophila S3 Cells; note: potency is the fitted concentration of half-maximal effect
experimental.conditions: BODIPY lipid droplet fluorescence, 18-24 h, cells fed with added oleic acid; series mostly up to 46.1 µM
Text: NIH Molecular Libraries Probe Production Centers Network [MLPCN] NIH Chemical Genomics Center [NCGC] […] Triacsin C (Sigma-Aldrich T-4540), an inhibitor of long-chain fatty acyl CoA synthetase that blocks synthesis of triglycerides, was used as a positive control for lipid under-storage. […] Fluorescence was detected by excitation of the fluorophores with a 488-nm laser on an Acumen Explorer (TTP Lab Tech). […] Cells were detected using channel 3 (575-640 nm) with 5-um width and 100-um depth filters. […]
The whole screen tested about 320,000 compounds, of which about 2,100 (0.66%) were called active. Inconclusive results (about 53%) are left out. Only a selection was taken, and actives are over-represented in it overall.
parameter: Potency

Solved entries:
Inquiry: Hello, please tell me recorded Potency for this one: CC(=O)c1ccc(NC(=O)CSc2nnc(C3CC3)n2C)cc1
Reply text: 1840 nM (active)

Inquiry: Hello, please tell me recorded Potency for this one: COc1ccc(C(=O)O)cc1S(=O)(=O)N1CCN(c2ccccn2)CC1
Reply text: 820 nM (active)

Inquiry: Hello, please tell me recorded Potency for this one: COc1ccc(/C=C/C(=O)N2CCN(c3ccccn3)CC2)c(OC)c1OC
Reply text: inactive

Inquiry: Hello, please tell me recorded Potency for this one: COC(=O)c1ccccc1NC(=O)CSc1nc(O)cc(=O)n1C1CCCC1
Reply text: inactive

Inquiry: Hello, please tell me recorded Potency for this one: CCN(CC)c1ccc(/C=C2\CCC(/C=C(\C#N)C(=O)Nc3ccccc3F)=C2N2CCOCC2)cc1
Reply text: 580 nM (active)

Inquiry: Hello, please tell me recorded Potency for this one: Cc1ccc(SCc2ccc(C(=O)NCc3cccnc3)cc2)cc1
Reply text: inactive

---
Inquiry: Hello, please tell me recorded Potency for this one: N#C/C(=C\C1=C(N2CCOCC2)C(=C/c2cccc([N+](=O)[O-])c2)/CC1)C(=O)Nc1ccccc1F
Reply text: 2060 nM (active)

Inquiry: Hello, please tell me recorded Potency for this one: Cc1cccc(NC(=O)CS(=O)(=O)c2cn(C)c3ccccc23)c1
Reply text: inactive

Inquiry: Hello, please tell me recorded Potency for this one: C[C@]12C=CC(=O)C=C1CC[C@@H]1[C@@H]2C(=O)C[C@@]2(C)[C@H]1CC[C@]2(O)C(=O)CO
Reply text: inactive

Inquiry: Hello, please tell me recorded Potency for this one: CC(C)n1cnnc1SCC(=O)Nc1cccc(S(=O)(=O)N(C)c2ccccc2)c1
Reply text: inactive

Inquiry: Hello, please tell me recorded Potency for this one: CCn1c(SCC(=O)Nc2ccc(C(C)=O)cc2)nnc1C1CC1
Reply text: inactive

* * *

method.notes: qHTS Assay for Lipid Storage Modulators in Drosophila S3 Cells;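 for cell number change: cells counted by Cell Tracker Red CMTPX staining in the red channel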
experimental.conditions: BODIPY lipid droplet fluorescence, 18-24 h, cells fed with added oleic acid; measured here: cell count max response
About 2,100 (0.66%) of roughly 320,000 compounds were called active. Not shown: some 53% with an inconclusive outcome. The full list was thinned out, with actives kept by preference.
The reader will find reported cell number change values listed item by item below.
Write the value in % as a bare number.

Inquiry: Hello, please tell me recorded cell number change for this one: COc1ccc(N2C(=O)CC(N(CCc3ccc(OC)c(OC)c3)C(=S)Nc3ccccc3)C2=O)cc1 (stereo unspecified)
Reply text: -11.8

Inquiry: Hello, please tell me recorded cell number change for this one: COc1cc(-c2cc(-c3ccc(N)cc3)[nH]c(=O)c2C#N)cc(OC)c1OC
Reply text: 28

---
Inquiry: Hello, please tell me recorded cell number change for this one: Cc1cccc(NC(=O)c2c(C)nc3ccccn23)c1
Reply text: 6.85

Inquiry: Hello, please tell me recorded cell number change for this one: CC(C)(C)NC(=O)NC(=O)COC(=O)Cn1c(C(F)(F)F)nc2ccccc21
Reply text: -8.07

Inquiry: Hello, please tell me recorded cell number change for this one: COC(=O)Cn1c(C(F)(F)F)nc2ccccc21
Reply text: -24.1

Inquiry: Hello, please tell me recorded cell number change for this one: CC(=O)Cn1c(C(F)(F)F)nc2ccccc21
Reply text: -7.24

* * *

method.notes: qHTS Assay for Lipid Storage Modulators in Drosophila S3 Cells
experimental.conditions: BODIPY lipid droplet fluorescence, 18-24 h, cells fed with added oleic acid; series mostly up to 46.1 µM
Text: NIH Molecular Libraries Probe Production Centers Network [MLPCN] NIH Chemical Genomics Center [NCGC] […] Triacsin C (Sigma-Aldrich T-4540), an inhibitor of long-chain fatty acyl CoA synthetase that blocks synthesis of triglycerides, was used as a positive control for lipid under-storage. […] Fluorescence was detected by excitation of the fluorophores with a 488-nm laser on an Acumen Explorer (TTP Lab Tech). […] Cells were detected using channel 3 (575-640 nm) with 5-um width and 100-um depth filters. […]
The whole screen tested about 320,000 compounds, of which about 2,100 (0.66%) were called active. Roughly 53% stayed inconclusive and do not appear here. The call rests on the fitted dose curve; in most records, active means well fitted inhibition curve with a large enough effect in the signal ratio, with a control signal flat (not every such curve was filed as active); inconclusive means small, poorly fitted or top-dose-only effect, or effect the other way, or a change in a side signal; inactive means flat fitted curve, though single readings scatter; the % refers to the signal ratio. The sample as a whole holds a higher share of actives than the screen did.
Respond using exactly one of the listed classes: active, inactive

Please review the following examples before continuing.
Inquiry: Returns: the outcome recorded for O=C(COc1ccc(Br)cc1)N1CCNC1=O in this assay.
Reply text: inactive

Inquiry: Returns: the outcome recorded for CCOc1ccc2nc(CN3CCN(Cc4ccsc4)C(CCO)C3)ccc2c1 (configuration not stated) in this assay.
Reply text: inactive

Inquiry: Returns: the outcome recorded for Cc1nn(CC(=O)Nc2ccc(S(=O)(=O)N(C)C)cc2)c(C)c1[N+](=O)[O-] in this assay.
Reply text: inactive

Inquiry: Returns: the outcome recorded for Cc1nn(CC(=O)Nc2ccc(N(C)C)cc2)c(C)c1[N+](=O)[O-] in this assay.
Reply text: inactive

Inquiry: Returns: the outcome recorded for C/C(=N/Nc1ccc([N+](=O)[O-])cc1)c1c[nH]c2ccccc12 in this assay.
Reply text: active

Inquiry: Returns: the outcome recorded for Cc1ccc(-n2ncc(C(=O)O)c2C2CCN(C(=O)OC(C)(C)C)CC2)cc1 in this assay.
Reply text: inactive

Inquiry: Returns: the outcome recorded for Cc1nn(CC(=O)Nc2ccc(Cl)c(S(=O)(=O)N(C)C)c2)c(C)c1[N+](=O)[O-] in this assay.
Reply text: active

Inquiry: Returns: the outcome recorded for CC(C)[C@H](NC(=O)NC1CCN(Cc2ccccc2)CC1)C(=O)O in this assay.
Reply text: inactive

---
Inquiry: Returns: the outcome recorded for N#Cc1c(NC(=O)c2ccc(Cn3cc(Br)cn3)o2)sc2c1CCCCC2 in this assay.
Reply text: inactive

Inquiry: Returns: the outcome recorded for COc1ccc(-n2ncc(C(=O)NC3CC3)c2C2CCN(C(=O)OC(C)(C)C)CC2)cc1 in this assay.
Reply text: active

Inquiry: Returns: the outcome recorded for C/C(=N\NS(=O)(=O)c1ccc([N+](=O)[O-])cc1)c1c[nH]c2ccccc12 in this assay.
Reply text: inactive
